Where do the numbers come from? From paper PMC12111632.

Target: PfPPase-VP1 (Plasmodium falciparum)
Sequence (Q8IKR1 entry or part of it): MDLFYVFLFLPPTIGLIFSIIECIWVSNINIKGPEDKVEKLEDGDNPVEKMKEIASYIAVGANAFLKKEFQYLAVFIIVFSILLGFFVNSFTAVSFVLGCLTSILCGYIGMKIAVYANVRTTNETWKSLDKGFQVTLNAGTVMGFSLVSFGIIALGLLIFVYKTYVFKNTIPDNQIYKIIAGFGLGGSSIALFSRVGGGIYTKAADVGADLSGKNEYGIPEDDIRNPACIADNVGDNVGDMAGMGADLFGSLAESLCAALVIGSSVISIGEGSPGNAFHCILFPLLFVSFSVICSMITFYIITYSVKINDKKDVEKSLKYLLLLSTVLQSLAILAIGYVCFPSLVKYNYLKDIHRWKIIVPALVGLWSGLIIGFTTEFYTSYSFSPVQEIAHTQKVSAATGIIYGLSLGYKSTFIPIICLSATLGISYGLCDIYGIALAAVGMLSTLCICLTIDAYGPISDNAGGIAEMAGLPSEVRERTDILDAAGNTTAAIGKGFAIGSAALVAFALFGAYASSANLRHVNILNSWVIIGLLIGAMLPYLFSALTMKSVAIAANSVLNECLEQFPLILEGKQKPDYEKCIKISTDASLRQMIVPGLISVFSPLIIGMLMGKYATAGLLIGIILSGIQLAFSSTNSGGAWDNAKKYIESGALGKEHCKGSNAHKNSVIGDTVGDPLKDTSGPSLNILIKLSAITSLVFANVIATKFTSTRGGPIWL
Experiment: biochemical
Where a name gives a salt, the structure may show the parent alone.
readout: IC50

Asked: Missing value: IC50, PfPPase-VP1 (Plasmodium falciparum), entry N=C(N)c1ccc(-c2ccc(-c3ccc(C(=N)N)cc3)o2)cc1 [Compound 2, Furamidine dihydrochloride] . Fill in?
Given back: 190 µM

---

Target: TmPPase (Thermotoga maritima, UniProt Q9S5X0)
Sequence (Q9S5X0 whole entry): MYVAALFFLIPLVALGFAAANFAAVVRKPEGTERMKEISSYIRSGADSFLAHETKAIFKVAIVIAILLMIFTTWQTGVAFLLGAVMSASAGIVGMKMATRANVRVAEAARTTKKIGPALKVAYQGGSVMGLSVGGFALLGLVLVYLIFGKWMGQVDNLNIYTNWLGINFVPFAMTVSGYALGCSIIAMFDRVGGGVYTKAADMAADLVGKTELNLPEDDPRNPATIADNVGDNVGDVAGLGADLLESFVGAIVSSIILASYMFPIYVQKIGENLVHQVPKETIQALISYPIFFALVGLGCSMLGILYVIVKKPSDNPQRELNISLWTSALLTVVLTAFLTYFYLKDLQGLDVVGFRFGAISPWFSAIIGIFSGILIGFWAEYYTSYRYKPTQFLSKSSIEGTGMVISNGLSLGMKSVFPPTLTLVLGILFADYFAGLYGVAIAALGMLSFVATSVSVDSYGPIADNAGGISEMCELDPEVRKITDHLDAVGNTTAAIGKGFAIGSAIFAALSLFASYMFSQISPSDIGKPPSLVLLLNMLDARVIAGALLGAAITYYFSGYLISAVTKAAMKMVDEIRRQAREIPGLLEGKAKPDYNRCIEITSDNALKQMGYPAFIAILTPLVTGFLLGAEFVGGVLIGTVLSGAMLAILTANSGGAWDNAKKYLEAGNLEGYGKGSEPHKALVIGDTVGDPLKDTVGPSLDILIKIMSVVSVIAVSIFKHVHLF
Test: TmPPase inhibition assay (96-well molybdenum blue colorimetric phosphate assay)
Assay type: biochemical
Set-up: made in house
Where a name gives a salt, the structure may show the parent alone.
readout: IC50 (TmPPase, μM)

| compound | IC50 (TmPPase, μM) |
| --- | --- |
| O=C1C(O)=C([C@H]2CC[C@H](c3ccc(Cl)cc3)CC2)C(=O)c2ccccc21 | Inactive |
| CC1(C)N=C(N)N=C(N)N1c1ccc(Cl)cc1 [Compound 4, Cycloguanil hydrochloride] | Inactive |
| CCN(CC)CCCC(C)Nc1ccnc2cc(Cl)ccc12 (stereo not shown) [Compound 12, Chloroquine diphospate salt] | Inactive |
| O=CN(O)CCCP(=O)(O)O | Inactive |
| N=C(N)c1ccc(-c2ccc(-c3ccc(C(=N)N)cc3)o2)cc1 [Compound 2, Furamidine dihydrochloride] | Inactive |
| CC(=O)N(O)CCCP(=O)(O)O [Compound 10, FR900098 (sodium salt)] | Inactive |

Asked: Requested field: IC50 (TmPPase, μM). Item: CCN(CC)CCCC(C)Nc1ccnc2cc(Cl)ccc12 (stereo not shown) [Compound 11, Chloroquine]
Given back: Inactive

Asked: Would you mind doing C[C@H]1c2cccc(O)c2C(=O)C2=C(O)[C@]3(O)C(=O)C(C(N)=O)=C(O)[C@@H](N(C)C)[C@@H]3[C@@H](O)[C@@H]21 [Compound 7, Doxycyline monohydrate] as well?
Given back: Inactive

Asked: Further, for OC(c1cc(C(F)(F)F)nc2c(C(F)(F)F)cccc12)C1CCCCN1 (stereo not shown) [Compound 5, Mefloquine hydrochloride] ?
Given back: Inactive

Asked: Same thing, different compound: N=C(N)c1ccc(OCCCCCOc2ccc(C(=N)N)cc2)cc1 [Compound 3, Pentamidine isethionate]
Given back: Inactive
